- System: MDMBA-231 breast cancer cell line
- Experimental Protocol: MTT antiproliferative assay, MDMBA-231
- Format: cell-based
- Condition Details: 10 µM, 24 h
The threshold is inclusive: GI% MDMBA-231 of exactly 30% counts as true; values below receive false.

Past entries and their recorded results:
> print(dat)
                                   compound  qualitative.label
1  Clc1ccc(-c2cc(OCCCn3ccnc3)c3cc(-c4ccco4)ccc3n2)cc1 [20e]               true
2  COc1cc2nc(-c3ccc(C)cc3)cc(OCCCn3ccnc3)c2cc1OC              false
3  COc1cc2nc(-c3ccc(-c4ccco4)cc3)cc(OCCCN3CCN(C)CC3)c2cc1OC              false
4  COc1ccc(-c2ccc3nc(-c4ccc(F)cc4)cc(OCCCN4CCOCC4)c3c2)cc1 [20d]              false

Please indicate if the recorded GI% MDMBA-231 for FC(F)(F)c1ccc(-c2cc(OCCCNC3CCCCC3)c3ccccc3n2)cc1 [10b] meets or exceeds 30%. true

* * *

- Measurement Target: VEGFR-2 (Homo sapiens, UniProt P35968)
- Sequence (P35968 20-1356): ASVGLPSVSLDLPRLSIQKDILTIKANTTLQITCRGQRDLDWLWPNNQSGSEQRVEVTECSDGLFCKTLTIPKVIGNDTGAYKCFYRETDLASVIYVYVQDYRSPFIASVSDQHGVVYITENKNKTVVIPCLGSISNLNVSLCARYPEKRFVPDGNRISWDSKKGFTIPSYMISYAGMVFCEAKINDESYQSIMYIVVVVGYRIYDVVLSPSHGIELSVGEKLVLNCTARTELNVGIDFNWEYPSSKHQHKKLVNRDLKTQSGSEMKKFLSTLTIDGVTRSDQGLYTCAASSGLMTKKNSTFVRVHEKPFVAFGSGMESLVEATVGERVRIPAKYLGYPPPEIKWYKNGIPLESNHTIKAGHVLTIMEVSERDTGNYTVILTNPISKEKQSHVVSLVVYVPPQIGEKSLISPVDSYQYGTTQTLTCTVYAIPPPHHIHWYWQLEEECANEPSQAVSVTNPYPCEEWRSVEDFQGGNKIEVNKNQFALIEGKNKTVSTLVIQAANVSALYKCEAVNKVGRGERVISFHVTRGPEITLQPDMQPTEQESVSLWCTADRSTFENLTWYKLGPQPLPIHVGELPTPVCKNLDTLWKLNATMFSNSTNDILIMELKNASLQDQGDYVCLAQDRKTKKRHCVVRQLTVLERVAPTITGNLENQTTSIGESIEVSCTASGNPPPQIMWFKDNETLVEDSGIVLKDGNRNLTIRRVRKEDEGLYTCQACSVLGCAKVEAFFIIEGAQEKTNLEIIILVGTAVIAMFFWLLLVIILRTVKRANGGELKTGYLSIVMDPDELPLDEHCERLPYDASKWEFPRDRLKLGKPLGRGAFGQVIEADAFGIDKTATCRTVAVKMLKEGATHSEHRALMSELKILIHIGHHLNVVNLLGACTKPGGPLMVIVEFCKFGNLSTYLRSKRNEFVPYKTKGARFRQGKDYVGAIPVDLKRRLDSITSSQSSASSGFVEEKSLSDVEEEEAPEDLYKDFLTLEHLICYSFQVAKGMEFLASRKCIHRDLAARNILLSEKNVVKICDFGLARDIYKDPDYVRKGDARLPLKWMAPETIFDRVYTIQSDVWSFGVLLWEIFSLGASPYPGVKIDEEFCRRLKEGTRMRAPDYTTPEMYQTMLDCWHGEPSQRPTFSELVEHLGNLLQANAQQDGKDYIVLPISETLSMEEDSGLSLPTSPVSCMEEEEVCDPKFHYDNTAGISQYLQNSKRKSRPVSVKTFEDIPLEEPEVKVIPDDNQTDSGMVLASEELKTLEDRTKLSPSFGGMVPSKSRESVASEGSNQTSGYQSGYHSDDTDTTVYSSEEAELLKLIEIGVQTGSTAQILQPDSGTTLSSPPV
pIC50 by entry:
Just the number, please; pIC50 means minus log10 of the concentration in mol/L.

Solved cases (4 shown):
> print(dat)
                                   molecule  readout.type  assay.value
1  COc1cc2nc(-c3ccc(C(F)(F)F)cc3)cc(OCCCN3CCN(C)CC3)c2cc1OC         pIC50         5.71
2  COc1ccc(-c2ccc3nc(-c4ccc(Cl)cc4)cc(OCCCn4ccnc4)c3c2)cc1 [20a]         pIC50         5.90
3  COc1cc2nc(-c3ccc(Cl)cc3)cc(OCCCN3CCN(C)CC3)c2cc1OC         pIC50         6.57
4  Clc1ccc(-c2cc(OCCCn3ccnc3)c3cc(Br)ccc3n2)cc1 [16a]         pIC50         5.47

Quick check: pIC50 on VEGFR-2 (Homo sapiens, UniProt P35968), item Clc1ccc(-c2cc(OCCCN3CCOCC3)c3cc4c(cc3n2)OCO4)cc1 [12b] ? 7.57

* * *

- System: MDMBA-231 breast cancer cell line
- Experimental Protocol: MTT antiproliferative assay, MDMBA-231
- Format: cell-based
- Condition Details: 10 µM, 24 h
Could you mark each record Condition met if its GI% MDMBA-231 falls strictly under 9%, and Condition not met if it equals or exceeds it?

Worked examples, 3 compounds total:
> print(dat)
                                   compound  qualitative.label
1  COc1cc2nc(-c3ccc(Cl)cc3)cc(OCCCN3CCN(C)CC3)c2cc1OC [6a]  Condition not met
2  COc1cc2nc(-c3ccc(C)cc3)cc(OCCCN3CCN(C)CC3)c2cc1OC [6k]      Condition met
3  COc1cc2nc(-c3ccc(C)cc3)cc(OCCCNC3CCN(C)CC3)c2cc1OC [6m]      Condition met

is_below(GI% MDMBA-231, 9%) for FC(F)(F)c1ccc(-c2cc(OCCCN3CCOCC3)c3cc4c(cc3n2)OCO4)cc1 [12d] ? Condition not met

Say whether its GI% MDMBA-231 is strictly beneath 9%. Entry: COc1cc2nc(-c3ccc(Cl)cc3)cc(OCCCNCC3CCCO3)c2cc1OC (centres unmarked) [6d] Condition not met
